This section presents compounds with their documented % Phosphatase Activity (compared to DMSO) PRL-3 values.
molecular target: recombinant PRL-3 (Homo sapiens); construct: 6xHis (N, cleaved yes); made in house; host or cells: E. coli One Shot BL21 Star; test: In vitro phosphatase assay (DiFMUP hydrolysis), PRL-3; type: biochemical; details: FDA-approved drug screen; compared to DMSO; also: test concentration or dose not given here
Sequence (O75365 whole entry): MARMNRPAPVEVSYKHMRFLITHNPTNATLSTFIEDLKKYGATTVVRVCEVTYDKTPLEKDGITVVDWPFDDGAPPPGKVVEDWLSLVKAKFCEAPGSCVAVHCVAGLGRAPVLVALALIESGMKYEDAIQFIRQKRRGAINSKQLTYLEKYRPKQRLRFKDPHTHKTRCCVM
PROPERTY NAME: % Phosphatase Activity (compared to DMSO) PRL-3

{"columns": ["COMPOUND", "RECORDED VALUE"],
 "data": [
  ["Cc1oncc1C(=O)Nc1ccc(C(F)(F)F)cc1 [Leflunomide]", "67%"],
  ["CCOC(=O)C1=C(C)NC(C)=C(C(=O)OC)C1c1cccc([N+](=O)[O-])c1 (stereo not shown) [Nitrendipine]", "68%"],
  ["CCC(=O)O[C@]1(C(=O)SCF)[C@H](C)C[C@H]2[C@@H]3C[C@H](F)C4=CC(=O)C=C[C@]4(C)[C@@]3(F)[C@@H](O)C[C@@]21C [Fluticasone propionate]", "90%"],
  ["CC(=O)O[C@H]1Cc2ccccc2N(C(N)=O)c2ccccc21 [Eslicarbazepine Acetate]", "75%"]
]}

====

This section presents molecules with their documented % Phosphatase Activity (compared to DMSO) PRL-2 values.
target: recombinant PRL-2 (Homo sapiens); construct: 6xHis (N, cleaved yes); made in house; host or cells: E. coli One Shot BL21 Star; assay: In vitro phosphatase assay (DiFMUP hydrolysis), PRL-2; type: biochemical; conditions: FDA-approved drug screen; compared to DMSO
Where a name gives a salt, the structure may show the parent alone.
PROPERTY NAME: % Phosphatase Activity (compared to DMSO) PRL-2 (%)

{"columns": ["MOLECULE", "UNIT STRING", "RECORDED VALUE"],
 "data": [
  ["CC(C)[C@H]1C(=O)N[C@@H](CCCN=C(N)N)C(=O)NCC(=O)N[C@@H](CC(=O)O)C(=O)N[C@H](Cc2ccccc2)C(=O)N1C [Cilengitide]", "%", 91],
  ["CN(C)CC(c1ccc(O)cc1)C1(O)CCCCC1 (stereo not shown) [Desvenlafaxine]", "%", 105],
  ["CCN(CCCc1ccccc1)CCCc1ccccc1 [Alverine Citrate]", "%", 107],
  ["c1cn2cc(-c3ccc4cn[nH]c4c3)nc(Nc3ccc(N4CCOCC4)cc3)c2n1 [GS-9973]", "%", 209],
  ["COc1ncc(-c2ccc3nccc(-c4ccnnc4)c3c2)cc1NS(=O)(=O)c1ccc(F)cc1F [GSK2126458 (GSK458)]", "%", 85],
  ["N#C[C@@H]1C[C@@H]2C[C@@H]2N1C(=O)[C@@H](N)C12CC3CC(CC(O)(C3)C1)C2 [Saxagliptin hydrate]", "%", 80],
  ["C[C@]12CC[C@@H]3c4ccc(O)cc4C[C@@H](CCCCCCCCC[S+]([O-])CCCC(F)(F)C(F)(F)F)[C@H]3[C@@H]1CC[C@@H]2O (stereo partly shown) [Fulvestrant]", "%", 91]
]}

====

target: recombinant PRL-1 (Homo sapiens); construct: 6xHis (N, cleaved yes); made in house; host or cells: E. coli One Shot BL21 Star; experiment: In vitro phosphatase assay (DiFMUP hydrolysis), PRL-1; format: biochemical; details: FDA-approved drug screen; compared to DMSO; also: test concentration or dose not given here
Sequence (Q93096 whole entry): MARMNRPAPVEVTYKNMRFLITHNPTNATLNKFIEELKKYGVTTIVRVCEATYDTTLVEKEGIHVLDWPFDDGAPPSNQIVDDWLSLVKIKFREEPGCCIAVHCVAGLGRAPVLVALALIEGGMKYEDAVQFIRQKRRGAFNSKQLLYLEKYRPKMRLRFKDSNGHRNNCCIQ
Where a name gives a salt, the structure may show the parent alone.
This section presents compounds with their documented % Phosphatase Activity (compared to DMSO) PRL-1 values.
PROPERTY NAME: % Phosphatase Activity (compared to DMSO) PRL-1 (%)

{"columns": ["COMPOUND", "TGT", "UNIT STRING", "RECORDED VALUE"],
 "data": [
  ["CCc1oc2ccccc2c1C(=O)c1cc(Br)c(O)c(Br)c1", "recombinant PRL-1 (Homo sapiens)", "%", 63],
  ["NC12CC3CC(CC(C3)C1)C2 [Amantadine HCl]", "recombinant PRL-1 (Homo sapiens)", "%", 117],
  ["CC[C@H]1[C@@H](O)[C@@H]2[C@H](CC[C@]3(C)[C@@H]([C@H](C)CCC(=O)O)CC[C@@H]23)[C@@]2(C)CC[C@@H](O)C[C@@H]12", "recombinant PRL-1 (Homo sapiens)", "%", 86],
  ["CO/N=C(\\C(=O)N[C@@H]1C(=O)N2C(C(=O)O)=C(CSc3nnnn3C)CS[C@H]12)c1csc(N)n1.CO/N=C(\\C(=O)N[C@@H]1C(=O)N2C(C(=O)O)=C(CSc3nnnn3C)CS[C@H]12)c1csc(N)n1.Cl [Cefmenoxime hydrochloride]", "recombinant PRL-1 (Homo sapiens)", "%", 92],
  ["CO[C@H]1C[C@@H]2CC[C@@H](C)[C@@](O)(O2)C(=O)C(=O)N2CCCC[C@H]2C(=O)O[C@H]([C@H](C)C[C@@H]2CC[C@@H](OCCO)[C@H](OC)C2)CC(=O)[C@H](C)/C=C(\\C)[C@@H](O)[C@@H](OC)C(=O)[C@H](C)C[C@H](C)/C=C/C=C/C=C/1C [Everolimus (RAD001)]", "recombinant PRL-1 (Homo sapiens)", "%", 86],
  ["CO[C@H]1C[C@@H]2CC[C@@H](C)[C@@](O)(O2)C(=O)C(=O)N2CCCC[C@H]2C(=O)O[C@H]([C@H](C)C[C@@H]2CC[C@@H](O)[C@H](OC)C2)CC(=O)[C@H](C)/C=C(\\C)[C@@H](O)[C@@H](OC)C(=O)[C@H](C)C[C@H](C)/C=C/C=C/C=C/1C [Rapamycin (Sirolimus)]", "recombinant PRL-1 (Homo sapiens)", "%", 88],
  ["C[N+]1(C)CCCC(OC(=O)C(O)(c2ccccc2)c2ccccc2)C1 (stereo not drawn) [Mepenzolate Bromide]", "recombinant PRL-1 (Homo sapiens)", "%", 93],
  ["Nc1nc(F)nc2c1ncn2[C@@H]1O[C@H](CO)[C@@H](O)[C@@H]1O", "recombinant PRL-1 (Homo sapiens)", "%", 110],
  ["C[C@@H](O)[C@H]1C(=O)N2C(C(=O)O)=C(S[C@@H]3CN[C@H](C(=O)N(C)C)C3)[C@H](C)[C@H]12", "recombinant PRL-1 (Homo sapiens)", "%", 104],
  ["C[C@]12CC[C@@H]3c4ccc(OC(=O)c5ccccc5)cc4CC[C@H]3[C@@H]1CC[C@@H]2O [Estradiol Benzoate]", "recombinant PRL-1 (Homo sapiens)", "%", 110],
  ["CN(C)CCCN1c2ccccc2CCc2ccc(Cl)cc21 [Clomipramine HCl]", "recombinant PRL-1 (Homo sapiens)", "%", 108],
  ["CC(=O)O[C@H]1C(=O)[C@@]2(C)[C@H]([C@H](OC(=O)c3ccccc3)[C@]3(O)C[C@H](OC(=O)[C@H](O)[C@@H](NC(=O)c4ccccc4)c4ccccc4)C(C)=C1C3(C)C)[C@]1(OC(C)=O)CO[C@@H]1C[C@@H]2O", "recombinant PRL-1 (Homo sapiens)", "%", 94]
]}

====

This section presents compounds with their documented % Phosphatase Activity (compared to DMSO) PRL-2 values.
biological target: recombinant PRL-2 (Homo sapiens, UniProt Q12974); construct: 6xHis (N, cleaved yes); made in house; host or cells: E. coli One Shot BL21 Star; assay: In vitro phosphatase assay (DiFMUP hydrolysis), PRL-2; type: biochemical; details: FDA-approved drug screen; compared to DMSO;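 also: PRL-2 activity read as DiFMUP hydrolysis after 20 min at room temperature with drug, enzyme first pre-reduced at 4 °C for 20 min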
Sequence (Q12974 whole entry): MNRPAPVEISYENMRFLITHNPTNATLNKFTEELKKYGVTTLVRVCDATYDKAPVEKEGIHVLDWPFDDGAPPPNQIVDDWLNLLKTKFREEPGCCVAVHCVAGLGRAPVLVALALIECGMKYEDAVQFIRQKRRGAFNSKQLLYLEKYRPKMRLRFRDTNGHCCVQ
PROPERTY NAME: % Phosphatase Activity (compared to DMSO) PRL-2 (%)

{"columns": ["COMPOUND", "TGT", "UNIT STRING", "RECORDED VALUE"],
 "data": [
  ["C#C[C@]1(O)CC[C@H]2[C@@H]3CCC4=CCCC[C@@H]4[C@H]3C(=C)C[C@@]21CC", "recombinant PRL-2 (Homo sapiens, UniProt Q12974)", "%", 109],
  ["C[C@]12CC[C@@H]3c4ccc(OC(=O)c5ccccc5)cc4CC[C@H]3[C@@H]1CC[C@@H]2O [Estradiol Benzoate]", "recombinant PRL-2 (Homo sapiens, UniProt Q12974)", "%", 117],
  ["CN(C)[C@@H]1C(O)=C(C(N)=O)C(=O)[C@@]2(O)C(O)=C3C(=O)c4c(O)cccc4[C@@](C)(O)[C@H]3[C@H](O)[C@@H]12 [Oxytetracycline Dihydrate]", "recombinant PRL-2 (Homo sapiens, UniProt Q12974)", "%", 101],
  ["COC1=C(OC)C(=O)C(CCCCCCCCCCO)=C(C)C1=O", "recombinant PRL-2 (Homo sapiens, UniProt Q12974)", "%", 150],
  ["CC(=O)OCC(=O)[C@@]1(O)CC[C@H]2[C@@H]3CCC4=CC(=O)C=C[C@]4(C)[C@H]3[C@@H](O)C[C@@]21C [Prednisolone Acetate]", "recombinant PRL-2 (Homo sapiens, UniProt Q12974)", "%", 102],
  ["S=c1nc[nH]c2nc[nH]c12", "recombinant PRL-2 (Homo sapiens, UniProt Q12974)", "%", 76],
  ["CC(=O)OCC[N+](C)(C)C [Acetylcholine Chloride]", "recombinant PRL-2 (Homo sapiens, UniProt Q12974)", "%", 97],
  ["N=C(N)N/N=C/c1c(Cl)cccc1Cl [Guanabenz Acetate]", "recombinant PRL-2 (Homo sapiens, UniProt Q12974)", "%", 108]
]}
